Molecular target: T1, recombinant human CD47 extracellular domain (ECD), His-tagged, dimer (human, UniProt Q08722 19-141)
T1 construct: Dimeric fraction of the same His-tagged ECD; also called His-tagged CD47-ECD dimer protein
Test: MSD; CD47-ECD dimer binding to captured SIRP alpha-Fc, mAb 10 µg/ml
Answer each item with its documented % SIRP alpha Inhibition.
Numbers only here, please. The scale is %.

Please give the measured % SIRP alpha Inhibition for this binder: C47B235 (antibody, V domains shown, human IgG2sigma/kappa) VH: EVQLVQSGAEVKKPGESLKISCKGSGYSFDDYWISWVRQMPGKGLEWMGIIYPGDSDTRYSPSFQGQVTISADKSISTAYLQWSSLKASDTAVYYCARVGRFASHQLDYWGQGTLVTVSS VL: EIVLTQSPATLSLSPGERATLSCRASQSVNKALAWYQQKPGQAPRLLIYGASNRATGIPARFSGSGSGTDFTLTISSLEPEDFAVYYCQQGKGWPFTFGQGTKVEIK
99.9

Find the recorded % SIRP alpha Inhibition belonging to C47B213 (antibody, V domains shown, human IgG2sigma/kappa) VH: EVQLVQSGAEVKKPGESLKISCKGSGYSFDDSWIGWVRQMPGKGLEWMGIIYPGDSDTRYSPSFQGQVTISADKSISTAYLQWSSLKASDTAVYYCARVGRFASHQLDYWGQGTLVTVSS VL: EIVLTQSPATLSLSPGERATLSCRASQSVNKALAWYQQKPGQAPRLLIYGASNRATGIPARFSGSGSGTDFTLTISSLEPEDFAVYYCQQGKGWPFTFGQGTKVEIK and report it.
71.6

Form field: reported % SIRP alpha Inhibition of C47B225 (antibody, V domains shown, human IgG2sigma/kappa) VH: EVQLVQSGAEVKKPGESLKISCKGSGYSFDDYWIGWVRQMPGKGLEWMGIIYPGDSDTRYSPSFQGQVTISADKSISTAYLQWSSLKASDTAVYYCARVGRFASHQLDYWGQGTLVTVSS VL: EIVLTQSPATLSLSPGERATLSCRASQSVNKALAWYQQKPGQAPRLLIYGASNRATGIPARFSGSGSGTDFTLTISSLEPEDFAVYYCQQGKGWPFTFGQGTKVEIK
96.3

Reported % SIRP alpha Inhibition, binder C47B227 (antibody, V domains shown, human IgG2sigma/kappa) VH: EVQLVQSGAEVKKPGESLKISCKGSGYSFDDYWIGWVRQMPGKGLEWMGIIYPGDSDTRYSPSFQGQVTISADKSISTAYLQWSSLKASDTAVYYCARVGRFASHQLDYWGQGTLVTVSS VL: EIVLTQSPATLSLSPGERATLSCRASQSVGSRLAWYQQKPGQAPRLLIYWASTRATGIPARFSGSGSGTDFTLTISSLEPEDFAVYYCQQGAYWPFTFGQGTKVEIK : ____
100

Any idea what its % SIRP alpha Inhibition is? The binder is C47B216 (antibody, V domains shown, human IgG2sigma/kappa) VH: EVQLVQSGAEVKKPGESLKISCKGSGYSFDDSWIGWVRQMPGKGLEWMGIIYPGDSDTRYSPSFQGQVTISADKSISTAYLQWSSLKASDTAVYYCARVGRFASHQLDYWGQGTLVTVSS VL: EIVLTQSPATLSLSPGERATLSCRASQSVSNRQAWYQQKPGQAPRLLIHSASNRATGIPARFSGSGSGTDFTLTISSLEPEDFAVYYCQQGRSWPFTFGQGTKVEIK
99.8

Sample C47B233 (antibody, V domains shown, human IgG2sigma/kappa) VH: EVQLVQSGAEVKKPGESLKISCKGSGYSFTNYWIGWVRQMPGKGLEWMGIIYPGDSDTRYSPSFQGQVTISADKSISTAYLQWSSLKASDTAVYYCARVGRFASHQLDYWGQGTLVTVSS VL: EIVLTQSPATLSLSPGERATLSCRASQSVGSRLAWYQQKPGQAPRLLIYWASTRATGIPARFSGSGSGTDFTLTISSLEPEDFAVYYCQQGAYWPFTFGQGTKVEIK — what was its % SIRP alpha Inhibition?
98.4

Please give the measured % SIRP alpha Inhibition for this binder: C47B217 (antibody, V domains shown, human IgG2sigma/kappa) VH: EVQLVQSGAEVKKPGESLKISCKGSGYSFTDSWIGWVRQMPGKGLEWMGIIYPGDSDTRYSPSFQGQVTISADKSISTAYLQWSSLKASDTAVYYCARVGRFASHQLDYWGQGTLVTVSS VL: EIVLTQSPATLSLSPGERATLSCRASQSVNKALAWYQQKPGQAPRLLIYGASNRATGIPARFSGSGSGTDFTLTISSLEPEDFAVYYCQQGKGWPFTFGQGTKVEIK
83.1

Value lookup for % SIRP alpha Inhibition; key = C47B218 (antibody, V domains shown, human IgG2sigma/kappa) VH: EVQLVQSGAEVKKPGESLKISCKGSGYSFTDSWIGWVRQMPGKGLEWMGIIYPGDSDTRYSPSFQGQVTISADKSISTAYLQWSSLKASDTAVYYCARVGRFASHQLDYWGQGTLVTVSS VL: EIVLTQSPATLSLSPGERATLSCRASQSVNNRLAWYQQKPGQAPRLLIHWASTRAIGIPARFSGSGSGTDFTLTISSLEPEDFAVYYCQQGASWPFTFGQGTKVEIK
98.9

Name the recorded % SIRP alpha Inhibition for C47B222 (human IgG2sigma) (antibody, V domains shown, human IgG2sigma/kappa; also called IgG2 Fc-silent C47B222) VH: EVQLVQSGAEVKKPGESLKISCKGSGYSFTDYWIGWVRQMPGKGLEWMGIIYPGDSDTRYSPSFQGQVTISADKSISTAYLQWSSLKASDTAVYYCARVGRFASHQLDYWGQGTLVTVSS VL: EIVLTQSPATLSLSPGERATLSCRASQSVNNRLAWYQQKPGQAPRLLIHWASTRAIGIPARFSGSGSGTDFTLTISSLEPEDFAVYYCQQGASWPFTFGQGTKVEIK .
99.9

What measured % SIRP alpha Inhibition goes with C47B91 (antibody, human IgG2, V domains shown, phage-derived; also called C47M91; parent C47B91) VH: EVQLVQSGAEVKKPGESLKISCKGSGYSFTSYWIGWVRQMPGKGLEWMGIIYPGDSDTRYSPSFQGQVTISADKSISTAYLQWSSLKASDTAMYYCARVGRFASHQLDYWGQGTLVTVSS VL: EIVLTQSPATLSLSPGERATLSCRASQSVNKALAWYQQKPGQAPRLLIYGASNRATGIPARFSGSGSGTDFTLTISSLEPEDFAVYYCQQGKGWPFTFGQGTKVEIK ?
82.6
